Biological target: T1, rKv1.1N (Rattus norvegicus, UniProt P10499)
T1 construct: expressed in transfected cells; host or cells: yeast HF7c (baits), mated with Y187 (fish)
T1 sequence (P10499 1-164 limits assumed): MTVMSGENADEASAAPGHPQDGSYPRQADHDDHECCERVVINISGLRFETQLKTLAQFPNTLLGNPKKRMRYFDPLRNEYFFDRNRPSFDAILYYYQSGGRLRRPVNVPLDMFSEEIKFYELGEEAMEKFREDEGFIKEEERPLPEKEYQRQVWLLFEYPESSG
Assay: Yeast two-hybrid binding and specificity test, Kv1.1 N-terminal bait
Procedure: Two-hybrid screens were carried out essentially as described in Bartel, P. et al. (1993) “Using the Two-Hybrid System to Detect Polypeptide-Polypeptide Interactions” in Cellular Interactions in Development: A Practical Approach, Hartley, D. A. ed. Oxford University Press, Oxford, pp. 153-179, with a bait-library pair of rkv4.3 bait-rat mid brain library. […]
experimental endpoint: binding to rKv1.1N in yeast two-hybrid assay

[[record]]
molecule = "Rat 5p: identical to rat Calpactin I light chain or P10 (protein) MPSQMEHAMETMMLTFHRFAGEKNYLTKEDLRVLMEREFPGFLENQKDPLAVDKIMKDLDQCRDGKVGFQSFLSLVAGLIIACNDYFVVHMKQKK"
value_observed = "does not bind"

[[record]]
molecule = "Rat 1p: partial rat PCIP of 267 amino acid residues, similar to human Restin (protein) LKGARPRVVNSTCSDFNHGSALHIAASNLCLGAAKCLLEHGANPALRNRKGQVPAEVVPDPMDMSLDKAEAALVAKELRTLLEEAVPLSCTLPKVTLPNYDNVPGNLMLSALGLRLGDRVLLDGQKTGTLRFCGTTEFASGQWVGVELDEPEGKNDGSVGGVRYFICPPKQGLFASVSKVSKAVDAPPSSVTSTPRTPRMDFSRVTGKGRREHKGKKKSPSSPSLGSLQQREGAKAEVGDQVLVAGQNRDCAFLWEDRLCSRLLVWH"
value_observed = "does not bind"

[[record]]
molecule = "Rat 7s: rat ortholog of the human vacuolar H(+)-ATPase catalytic subunit A (partial) (protein) ADSTSRWAEALREISGRLAEMPADSGYPAYLGARLASFYERAGRVKCLGNPEREGSVSIVGAVSPPGGDFSDPVTSATLGIVQVFWGLDKKLAQRKHFPSVNWLISYSKYMRALDEYYDKHFTEFVPLRTKAKEILQEEEDLAEIVQLVGKASLAETDKITLEVAKLIKDDFLQQNGYTPYDRFCPFYKTVGMLSNMISFYDMARRAVETTAQSDNKITWSIIREHMGEILYKLSSMKFKDPVKDGEAKIKADYAQLLEDMQNAFRSLED"
value_observed = "does not bind"

